Cited source for all entries: patent US20260103465A1

Molecular target: GSK3a (GST-full length GSK3a) (Homo sapiens)
Construct: GST-full length GSK3a [SignalChem G08-10G]; purchased SignalChem G08-10G
Sequence (P49840 whole entry): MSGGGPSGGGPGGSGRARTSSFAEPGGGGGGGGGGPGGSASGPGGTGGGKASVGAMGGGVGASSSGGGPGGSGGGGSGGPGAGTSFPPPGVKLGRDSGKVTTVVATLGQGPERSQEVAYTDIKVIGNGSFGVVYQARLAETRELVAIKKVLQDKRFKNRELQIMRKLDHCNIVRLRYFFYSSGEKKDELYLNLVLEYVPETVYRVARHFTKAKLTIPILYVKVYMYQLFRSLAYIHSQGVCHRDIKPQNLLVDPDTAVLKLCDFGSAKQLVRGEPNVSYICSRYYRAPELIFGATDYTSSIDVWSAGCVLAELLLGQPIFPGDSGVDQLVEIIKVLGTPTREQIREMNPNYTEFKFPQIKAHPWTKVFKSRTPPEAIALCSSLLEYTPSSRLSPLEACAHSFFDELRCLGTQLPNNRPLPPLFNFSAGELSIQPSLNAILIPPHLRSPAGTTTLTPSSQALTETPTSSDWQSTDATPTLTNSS
Assay: GSK3a TR-FRET kinase inhibition assay
Assay type: biochemical
Settings: 1 mM ATP; Table 5; read-out: GSK3α TR-FRET 1 mM ATP Average IC50
pIC50: −log10 of the molar value.
Assay readout: pIC50

Report its pIC50 with GSK3a (GST-full length GSK3a) (Homo sapiens) as the test system: CC1(C)CC2=C(C(=O)N1)C(C)(c1cccc(S(C)(=O)=O)c1)c1cc(C(F)(F)F)cnc1N2 (single isomer, unassigned) [651B]
6.00 to 7.00

Report its pIC50 with GSK3a (GST-full length GSK3a) (Homo sapiens) as the test system: CC1(C)CC(=O)C2=C(C1)Nc1ncccc1C2(C)c1cccc(N(CC2CC2)c2ncccn2)c1 (single isomer, unassigned) [652B]
≥ 7.00

Report its pIC50 with GSK3a (GST-full length GSK3a) (Homo sapiens) as the test system: CC1(C)CC(=O)C2=C(C1)Nc1ncc(F)cc1C2(C)c1cccc(-c2ccncc2CC(F)(F)F)c1 (single isomer, unassigned) [653A]
5.30 to 6.00

Report its pIC50 with GSK3a (GST-full length GSK3a) (Homo sapiens) as the test system: CC1(C)CC2=C(C(=O)N1)C(C)(c1ccccc1)c1cc(C(F)(F)F)cnc1N2 (single isomer, unassigned) [625A]
5.30 to 6.00

Report its pIC50 with GSK3a (GST-full length GSK3a) (Homo sapiens) as the test system: CN1C(=O)C2=C(CC1(C)C)Nc1ncc(F)c(C#N)c1C2(C)c1ccccc1 (single isomer, unassigned) [615A]
5.30 to 6.00

Report its pIC50 with GSK3a (GST-full length GSK3a) (Homo sapiens) as the test system: CCc1cnc2c(c1C#N)C(C)(c1ccccc1)C1=C(CC(C)(C)CC1=O)N2 (single isomer, unassigned) [608B]
4.70 to 5.30

Report its pIC50 with GSK3a (GST-full length GSK3a) (Homo sapiens) as the test system: CC1(C)CC(=O)C2=C(C1)Nc1ncc(C(F)(F)F)cc1C2(C)c1cccc(C(F)F)c1 (single isomer, unassigned) [646B]
5.30 to 6.00

Report its pIC50 with GSK3a (GST-full length GSK3a) (Homo sapiens) as the test system: Cc1cnc2c(c1C#N)C(C)(c1ccccc1)C1=C(CC(C)(C)CC1=O)N2 (single isomer, unassigned) [603A]
4.70 to 5.30

Report its pIC50 with GSK3a (GST-full length GSK3a) (Homo sapiens) as the test system: Cn1ncc2c3c(ncc21)NC1=C(C(=O)CC(C)(C)C1)C3(C)c1ccccc1 (single isomer, unassigned) [609A]
4.70 to 5.30

Report its pIC50 with GSK3a (GST-full length GSK3a) (Homo sapiens) as the test system: CC1(C)CC(=O)C2=C(C1)Nc1ncc(C(C)(F)F)c(C#N)c1C2(C)c1ccccc1 (single isomer, unassigned) [631B]
4.70 to 5.30

Report its pIC50 with GSK3a (GST-full length GSK3a) (Homo sapiens) as the test system: CC1(C)CC(=O)C2=C(Nc3ncc(F)c(C#N)c3[C@@]2(C)c2ccccc2)[C@H]1F (single isomer, unassigned) [Compound 617D]
6.00 to 7.00

Report its pIC50 with GSK3a (GST-full length GSK3a) (Homo sapiens) as the test system: Cc1ccc(C2(C)C3=C(CC(C)(C)CC3=O)Nc3ncc(F)cc32)cc1S(C)(=O)=O (single isomer, unassigned) [644A]
6.00 to 7.00

Report its pIC50 with GSK3a (GST-full length GSK3a) (Homo sapiens) as the test system: CC1(C)CC(=O)C2=C(Nc3ncc(C(F)F)c(C#N)c3[C@]2(C)c2ccccc2)[C@H]1F (single isomer, unassigned) [Compound 633A]
4.70 to 5.30
